In this section, each of the variants is paired with its reported abundance fitness.
B1: Androgen receptor, residues 557 to 632; numbered along this chain, P10275 (parent)
chain: QKTCLICGDEASGCHYGALTCGSCKVFFKRAAEGKQKYLCASRNDCTIDKFRRKNCPSCRLRKCYEAGMTLGARKL

variants of: B1; assay: abundance fitness (aPCA) (normalised: wild type 0, dead -1); higher = more abundant; growth selection in yeast, the domain comes from the species named; settings: Homo sapiens

Worked cases, abundance fitness given:
Exercise: Which value of abundance fitness has been reported for `L39E` in the records?
Key: 0.054

Exercise: Note, next up: `G17M`
Key: -0.229

Exercise: Note, next up: `G8A`
Key: 0.009

More entries:
Exercise: Which value of abundance fitness has been reported for `G17L` in the records?
Key: -0.552

Exercise: Note, next up: `R52M`
Key: -0.067

Exercise: Note, next up: `Y16D`
Key: -0.355

Exercise: Note, next up: `Y65S`
Key: -0.208

Exercise: Note, next up: `K50L`
Key: -0.027

Exercise: Note, next up: `K63M`
Key: -0.133

Exercise: Note, next up: `R30L`
Key: 0.099

Exercise: Note, next up: `I6K`
Key: -1.05

Exercise: Note, next up: `H15L`
Key: -0.211

Exercise: Note, next up: `K35W`
Key: -0.213

Exercise: Note, next up: `G72A`
Key: -0.011

Exercise: Note, next up: `C46D`
Key: -0.495

Exercise: Note, next up: `S23A`
Key: -0.163

Exercise: Note, next up: `A41Q`
Key: -0.081

Exercise: Note, next up: `N44S`
Key: -0.076

Exercise: Note, next up: `G22E`
Key: 0.064

Exercise: Note, next up: `A31D`
Key: -0.503

Exercise: Note, next up: `C14I`
Key: 0.085

Exercise: Note, next up: `C46H`
Key: -0.38
